- measured target: Cad1 (UniProt P24813)
- Sequence: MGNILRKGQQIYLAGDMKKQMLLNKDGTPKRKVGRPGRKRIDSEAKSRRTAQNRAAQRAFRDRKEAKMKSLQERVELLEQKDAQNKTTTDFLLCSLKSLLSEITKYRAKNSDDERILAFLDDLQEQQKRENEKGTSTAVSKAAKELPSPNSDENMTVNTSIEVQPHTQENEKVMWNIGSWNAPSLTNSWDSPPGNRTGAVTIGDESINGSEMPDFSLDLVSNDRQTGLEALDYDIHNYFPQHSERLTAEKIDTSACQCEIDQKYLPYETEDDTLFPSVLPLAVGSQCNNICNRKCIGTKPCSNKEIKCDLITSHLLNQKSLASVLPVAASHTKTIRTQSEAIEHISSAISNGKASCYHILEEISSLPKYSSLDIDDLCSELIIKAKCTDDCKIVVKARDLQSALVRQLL
- measurement notes: PBM E-score (8-mer binding enrichment) (E-score (-0.5 to 0.5)); higher = stronger / more preferred TF binding
- details: protein concentration: 100 nM; construct: GST-full length
In all, about 33,000 sequences were measured (“E-score (-0.5 to 0.5)”: median about -0.0014, highest 2% from about 0.25 on). What follows is part of a selection rich in the highest values, with near analogues and random picks from the rest.
Decision: PBM E-score compared against 0.02; not below it gives Met, below it gives Not met.

Is the recorded value of PBM E-score equal to or greater than 0.02 for this sequence? `AGGTAAAT` Not met

Is the recorded value of PBM E-score equal to or greater than 0.02 for this sequence? `AAACTCAT` Met
